B1: library; a variant is named by its letters at N, in order (parent)
chain: GCUGUCACCGGUGCUUGGUACGUUAUAUUCAGCCGGUCUGAUGAGUCUNNNNNNAGACGAAACAGC

Variants of: B1
procedure.details: normalized RNA/DNA level without ligand (relative to sTRSVctl = 100) (log10 (% of sTRSVctl)); HEK293T overexpressing SLC46A1; higher = less ribozyme self-cleavage, higher mRNA level
test.context: without (6R,S)-folinic acid; ligand present: no
readout.label: normalized RNA/DNA level without ligand (log10)

Please review the entries below; each comes with its answer.
INSERT INTO assay_data (alteration, val) VALUES
  ('CUGGAU', 1.97),
  ('AUGUAU', 1.94);

Reported normalized RNA/DNA level without ligand (log10) ( CCUUGU ) = 2.01

Reported normalized RNA/DNA level without ligand (log10) ( UAAAGA ) = 1.88

Reported normalized RNA/DNA level without ligand (log10) ( GUUGGU ) = 1.98

Reported normalized RNA/DNA level without ligand (log10) ( GUGAGC ) = 1.74

Reported normalized RNA/DNA level without ligand (log10) ( AUGUCA ) = 1.98
